# MEASURED_TARGET: angiotensin II receptor (Oryctolagus cuniculus, UniProt P34976)
# Construct: The aorta was cut into 3~4 mm to form ring samples; from tissue; host or cells: isolated aorta rings of New Zealand White rabbits
# PROCEDURE_DETAILS: inhibition of angiotensin II induced contraction of isolated rabbit aorta rings
# Assay type: cell-based, New Zealand White rabbit
# MEASUREMENT_PARAMETERS: test compound incubated 20 minutes, 37° C., pH 7.4, read-out: IC50 (concentration being required to inhibit angiotensin II induced contraction by 50%)
ENDPOINT: IC50 (nM)

Recorded results for 10 molecules are shown here.
| MOLECULE | REPORTED |
| --- | --- |
| CCCCc1nc(C)c(CC(=O)N2CCC(C(N)=O)CC2)c(=O)n1Cc1ccc(-c2ccccc2-c2nn[nH]n2)cc1 [Compound 54] | 2.2 |
| CCCCc1nc(C)c(CC(=O)N2CCCCCC2)c(=O)n1Cc1ccc(-c2ccccc2-c2nn[nH]n2)cc1 [Compound 56] | 3.33 |
| CCCCc1nc(C)c(CCCC(=O)O)c(=O)n1Cc1ccc(-c2ccccc2-c2nnn[nH]2)cc1 [Compound 30] | 7.26 |
| CCCc1nc(C)c(CC(=O)N(CC)CC)c(=O)n1Cc1ccc(-c2ccccc2-c2nnn[nH]2)cc1 [Compound 12] | 5.59 |
| CCc1nc(C)c(CC(=O)N(CC)CC)c(=O)n1Cc1ccc(-c2ccccc2-c2nnn[nH]2)cc1 [Compound 4] | 15.1 |
| CCCCc1nc(C)c(CC(=O)N2CCSCC2)c(=O)n1Cc1ccc(-c2ccccc2-c2nn[nH]n2)cc1 [Compound 75] | 2.76 |
| CCCCc1nc(=O)c(CCC(=O)O)c(CC)n1Cc1ccc(-c2ccccc2-c2nn[nH]n2)cc1 [Compound 35] | 62 |
| CCCCc1nc(CCC)c(CCC(=O)OCC)c(=O)n1Cc1ccc(-c2ccccc2-c2nn[nH]n2)cc1 [Compound 36] | 44.5 |
| CCCCc1nc(C)c(CC(=O)N2CC=CC2)c(=O)n1Cc1ccc(-c2ccccc2-c2nn[nH]n2)cc1 [Compound 44] | 2.04 |
| CCCCc1nc(C)c(CC(=O)N2CCOCC2)c(=O)n1Cc1ccc(-c2ccccc2-c2nn[nH]n2)cc1 [Compound 73] | 1.75 |

I. CCCCc1nc(C)c(CCC(=O)O)c(=O)n1Cc1ccc(-c2ccccc2-c2nnn[nH]2)cc1 [Compound 25]
II. CCCCc1nc(C)c(CCC(=O)N2CCCCCCC2)c(=O)n1Cc1ccc(-c2ccccc2-c2nn[nH]n2)cc1 [Compound 71]
// compare measured IC50, left I , right II , return larger Reply with the label of the item you choose. II
(II: 16.8 nM, I: 9.43 nM)

I. CCCCc1nc(C)c(CCC(=O)N2CCN(C/C=C/c3ccccc3)CC2)c(=O)n1Cc1ccc(-c2ccccc2-c2nn[nH]n2)cc1 [Compound 83]
II. CCCCc1nc(C)c(CCC(=O)N2CCC[C@H]2C(N)=O)c(=O)n1Cc1ccc(-c2ccccc2-c2nn[nH]n2)cc1 [Compound 60]
// compare measured IC50, left I , right II , return larger Reply with the label of the item you choose. I
(I: 151 nM, II: 2.88 nM)

###

# MEASURED_TARGET: angiotensin II receptor (Oryctolagus cuniculus)
# Construct: The aorta was cut into 3~4 mm to form ring samples; from tissue; host or cells: isolated aorta rings of New Zealand White rabbits
# PROCEDURE_DETAILS: inhibition of angiotensin II induced contraction of isolated rabbit aorta rings
# Type: cell-based, New Zealand White rabbit
# MEASUREMENT_PARAMETERS: test compound incubated 20 minutes, 37° C., pH 7.4, read-out: IC50 (concentration being required to inhibit angiotensin II induced contraction by 50%)
# Protocol: The antagonistic activity of the representative compounds of the invention was evaluated using the methodology describe below. From New Zealand White rabbits (male or female, 2~2.5 kg), aorta was isolated, and fat and connected tissue were removed therefrom. The aorta was cut into 3~4 mm to form ring samples. The aorta sample was suspended in 20 ml of organ bath (37° C.) containing modified Krebs-Henseleit solution saturated with 95% O2 /5% CO2 (pH 7.4). […]
pIC50: −log10 of the molar value.
ENDPOINT: pIC50

| MOLECULAR_STRING | pIC50 |
| --- | --- |
| CCCCc1nc(C)c(CCC(=O)N(CC)CC)c(=O)n1Cc1ccc(-c2ccccc2-c2nnn[nH]2)cc1 | 7.51 |

I. CCCCc1nc(C)c(CCC(=O)N2CC=CC2)c(=O)n1Cc1ccc(-c2ccccc2-c2nn[nH]n2)cc1
II. CCCc1nc(C)c(CC(=O)OCC)c(=O)n1Cc1ccc(-c2ccccc2-c2nnn[nH]2)cc1
// compare measured pIC50, left I , right II , return larger Reply with the label of the item you choose. II

a. CCCCc1nc(C)c(CCC(=O)N2CCCCCC2)c(=O)n1Cc1ccc(-c2ccccc2-c2nn[nH]n2)cc1
b. CCCCc1nc(C)c(CC(=O)O)c(=O)n1Cc1ccc(-c2ccccc2-c2nnn[nH]2)cc1
Lower value for measured pIC50? Options: a , b Reply with the label of the item you choose. a
(a: 7.94, b: 8.58)

I. CCCCc1nc(C)c(CCC(=O)N2CCC[C@H]2C(=O)OC)c(=O)n1Cc1ccc(-c2ccccc2-c2nn[nH]n2)cc1
II. CCCc1nc(C)c(CCC(=O)O)c(=O)n1Cc1ccc(-c2ccccc2-c2nnn[nH]2)cc1
// compare measured pIC50, left I , right II , return larger Reply with the label of the item you choose. I
(I: 8.47, II: 8.13)

###

# MEASURED_TARGET: angiotensin II receptor (Oryctolagus cuniculus)
# Construct: The aorta was cut into 3~4 mm to form ring samples; from tissue; host or cells: isolated aorta rings of New Zealand White rabbits
# Sequence (P34976 1-359): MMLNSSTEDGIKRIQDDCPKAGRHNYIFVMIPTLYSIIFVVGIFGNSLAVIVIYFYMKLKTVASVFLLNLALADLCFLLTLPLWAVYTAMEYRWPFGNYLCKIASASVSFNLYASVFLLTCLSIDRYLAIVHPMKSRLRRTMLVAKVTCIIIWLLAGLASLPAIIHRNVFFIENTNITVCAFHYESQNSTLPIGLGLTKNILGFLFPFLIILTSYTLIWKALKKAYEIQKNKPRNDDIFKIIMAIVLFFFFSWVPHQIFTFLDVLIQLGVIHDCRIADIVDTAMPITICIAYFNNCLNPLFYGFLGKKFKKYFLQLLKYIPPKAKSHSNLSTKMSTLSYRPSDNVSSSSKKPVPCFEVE
# PROCEDURE_DETAILS: inhibition of angiotensin II induced contraction of isolated rabbit aorta rings
# Format: cell-based, New Zealand White rabbit
# MEASUREMENT_PARAMETERS: test compound incubated 20 minutes, 37° C., pH 7.4, read-out: IC50 (concentration being required to inhibit angiotensin II induced contraction by 50%)
ENDPOINT: IC50 (nM)

| COMPOUND | IC50 / nM |
| --- | --- |
| CCCCc1nc(=O)c(CCC(=O)O)c(CCC)n1Cc1ccc(-c2ccccc2-c2nn[nH]n2)cc1 | 115 |
| CCCCc1nc(C)c(CCC(=O)N2CCN(C(C)=O)CC2)c(=O)n1Cc1ccc(-c2ccccc2-c2nn[nH]n2)cc1 | 9.87 |
| CCCCc1nc(C)c(CC(=O)N2CCCCC2)c(=O)n1Cc1ccc(-c2ccccc2-c2nn[nH]n2)cc1 | 2.46 |
| CCCCc1nc(CC)c(CCC(=O)O)c(=O)n1Cc1ccc(-c2ccccc2-c2nn[nH]n2)cc1 | 4.17 |

A. CCCCc1nc(C)c(CC(=O)OCC)c(=O)n1Cc1ccc(-c2ccccc2C(=O)O)cc1
B. CCc1nc(=O)c(CCC(=O)O)c(C)n1Cc1ccc(-c2ccccc2-c2nnn[nH]2)cc1
Lower value for measured IC50? Options: A , B Reply with the label of the item you choose. B

###

# MEASURED_TARGET: angiotensin II receptor (Oryctolagus cuniculus, UniProt P34976)
# Construct: The aorta was cut into 3~4 mm to form ring samples; from tissue; host or cells: isolated aorta rings of New Zealand White rabbits
# PROCEDURE_DETAILS: inhibition of angiotensin II induced contraction of isolated rabbit aorta rings
# Format: cell-based, New Zealand White rabbit
# MEASUREMENT_PARAMETERS: test compound incubated 20 minutes, 37° C., pH 7.4, read-out: IC50 (concentration being required to inhibit angiotensin II induced contraction by 50%)
# Procedure: The antagonistic activity of the representative compounds of the invention was evaluated using the methodology describe below. From New Zealand White rabbits (male or female, 2~2.5 kg), aorta was isolated, and fat and connected tissue were removed therefrom. The aorta was cut into 3~4 mm to form ring samples. The aorta sample was suspended in 20 ml of organ bath (37° C.) containing modified Krebs-Henseleit solution saturated with 95% O2 /5% CO2 (pH 7.4). […]
ENDPOINT: IC50 (nM)

Recorded results for 4 molecules are shown here.
| MOLECULAR_STRING | IC50 (nM) |
| --- | --- |
| CCCCc1nc(C)c(CC(=O)N2CCCC(C)(C)C2)c(=O)n1Cc1ccc(-c2ccccc2-c2nn[nH]n2)cc1 | 8.96 |
| CCCCc1nc(C)c(CCC(=O)N2CCC(Cc3ccccc3)CC2)c(=O)n1Cc1ccc(-c2ccccc2-c2nn[nH]n2)cc1 | 302 |
| CCCCc1nc(C)c(CC(=O)OCC)c(=O)n1Cc1ccc(-c2ccccc2-c2nnn[nH]2)cc1 | 4.63 |
| CCCCc1nc(C)c(CC(=O)N2CCC(C(=O)OCC)CC2)c(=O)n1Cc1ccc(-c2ccccc2-c2nn[nH]n2)cc1 | 5.99 |

1. CCOC(=O)Cc1c(C)nc(CC)n(Cc2ccc(-c3ccccc3-c3nnn[nH]3)cc2)c1=O
2. CCCCc1nc(C)c(CC(=O)N2CCCCCCC2)c(=O)n1Cc1ccc(-c2ccccc2-c2nn[nH]n2)cc1
// compare measured IC50, left 1 , right 2 , return larger Reply with the label of the item you choose. 1
